System: Staphylococcus aureus
Experiment: Antimicrobial activity against Staphylococcus aureus after 24 hrs by agar diffusion technique
Format: functional

>  <Smiles Record>
CCn1cc(C(=O)O)c(=O)c2cc(F)c(N3CC[N+](CCO)(CCO)CC3)cc21.[Br-]

>  <logMIC>
2.11

$$$$
>  <Smiles Record>
CCn1cc(C(=O)O)c(=O)c2cc(F)c(N3CCN(Cn4cnc5ccccc54)CC3)cc21

>  <logMIC>
2.11

$$$$
>  <Smiles Record>
CCn1cc(C(=O)O)c(=O)c2cc(F)c(N3CCNCC3)cc21

>  <logMIC>
1.81

$$$$
>  <Smiles Record>
CCn1cc(C(=O)O)c(=O)c2cc(F)c(N3CCN(C4CCCC4)CC3)cc21

>  <logMIC>
1.04

$$$$
>  <Smiles Record>
CCn1cc(C(=O)O)c(=O)c2cc(F)c(N3CCN(CN4C(=O)c5ccccc5C4=O)CC3)cc21

>  <logMIC>
2.71

$$$$
>  <Smiles Record>
CCn1cc(C(=O)O)c(=O)c2cc(F)c(N3CCN(CN4N=C(C)CC4=O)CC3)cc21

>  <logMIC>
1

$$$$
>  <Smiles Record>
CCn1cc(C(=O)O)c(=O)c2cc(F)c(N3CCN(CN4CCOCC4)CC3)cc21

>  <logMIC>
0

$$$$
>  <Smiles Record>
CCn1cc(C(=O)O)c(=O)c2cc(F)c(N3CCN(C=O)CC3)cc21

>  <logMIC>
0

$$$$
>  <Smiles Record>
CCn1cc(C(=O)O)c(=O)c2cc(F)c(N3CCN(c4nnc(-c5ccccc5)c(-c5ccccc5)n4)CC3)cc21

>  <logMIC>
1.81

$$$$
>  <Smiles Record>
CCn1cc(C(=O)O)c(=O)c2cc(F)c(N3CCN(CN4C(=O)CCC4=O)CC3)cc21

>  <logMIC>
0.6

$$$$
>  <Smiles Record>
CCn1cc(C(=O)O)c(=O)c2cc(F)c(N3CCN(CN4C(=O)c5cccc6cccc(c56)C4=O)CC3)cc21

>  <logMIC>
2.11

$$$$

Source of measurements: ChEMBL document CHEMBL1137764
